target: Recombinant full-length human EP (Enteropeptidase) (Homo sapiens, UniProt P98073); construct: Recombinant full-length human EP (PeproTech, Cat #450-48C); purchased PeproTech 450-48C; test: In vitro inhibition potencies against Enteropeptidase (EP), fluorescent peptide GDDDDK-naphthylamine substrate; format: biochemical; details: compound 0.1 μM, 300 μM substrate, 1.25 nM EP
Sequence (P98073 whole entry): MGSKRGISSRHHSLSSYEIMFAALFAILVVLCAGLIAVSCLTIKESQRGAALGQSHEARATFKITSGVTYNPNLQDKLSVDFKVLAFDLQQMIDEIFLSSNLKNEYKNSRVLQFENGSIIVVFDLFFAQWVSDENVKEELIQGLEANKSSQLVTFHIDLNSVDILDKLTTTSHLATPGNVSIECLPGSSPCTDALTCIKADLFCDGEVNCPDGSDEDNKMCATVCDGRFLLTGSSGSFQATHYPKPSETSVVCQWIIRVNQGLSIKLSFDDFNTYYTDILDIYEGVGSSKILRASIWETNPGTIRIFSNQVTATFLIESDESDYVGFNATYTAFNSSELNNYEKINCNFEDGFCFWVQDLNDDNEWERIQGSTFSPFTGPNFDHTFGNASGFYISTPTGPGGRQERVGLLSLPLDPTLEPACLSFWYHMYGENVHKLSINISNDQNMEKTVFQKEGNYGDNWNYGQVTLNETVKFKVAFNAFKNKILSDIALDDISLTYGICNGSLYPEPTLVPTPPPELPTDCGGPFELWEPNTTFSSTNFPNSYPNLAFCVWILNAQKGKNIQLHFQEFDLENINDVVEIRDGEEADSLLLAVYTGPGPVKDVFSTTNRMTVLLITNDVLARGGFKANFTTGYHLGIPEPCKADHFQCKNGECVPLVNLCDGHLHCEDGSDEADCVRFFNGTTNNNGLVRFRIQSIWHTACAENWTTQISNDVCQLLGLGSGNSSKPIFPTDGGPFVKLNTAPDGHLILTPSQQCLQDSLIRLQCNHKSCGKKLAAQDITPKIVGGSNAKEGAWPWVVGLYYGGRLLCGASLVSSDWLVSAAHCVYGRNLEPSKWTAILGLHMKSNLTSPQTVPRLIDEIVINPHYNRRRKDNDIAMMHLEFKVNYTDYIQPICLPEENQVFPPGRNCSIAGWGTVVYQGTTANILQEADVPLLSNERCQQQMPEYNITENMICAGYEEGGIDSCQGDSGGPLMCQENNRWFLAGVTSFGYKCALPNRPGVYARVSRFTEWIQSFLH
Binary call on inhibition at 0.1 µM: yes from 40% upward, no beneath that.

Examples from the recorded data:
| molecule | group-label |
| --- | --- |
| N=C(N)Nc1ncc(C(=O)Oc2ccc(CC(=O)NC(CC(=O)O)C(=O)O)n3ccnc23)cn1 (centres unmarked) [Compound 31] | yes |
| N#Cc1cc(C(=O)Oc2ccc(CC(=O)O)n3ncnc23)ccc1NC(=N)N [Compound 22] | no |
| C#CCOCCOCC#Cc1cc(NC(=N)N)ccc1C(=O)Oc1ccc(CC(=O)O)n2ncnc12 [Compound 42] | yes |
| N=C(N)Nc1ccc(C(=O)Oc2ccc(CC(=O)O)n3ncnc23)c2ccoc12 [Compound 24] | no |

Quick check, inhibition at 0.1 µM >= 40%? N=C(N)Nc1ncc(C(=O)Oc2ccc(CC(=O)O)n3ccnc23)cn1 [Compound 29]
yes

Please give the result for N#CNC(=N)c1ccc(C(=O)Oc2ccc(CC(=O)O)n3ncnc23)cc1 [Compound 38] too.
no

Also N=C(N)Nc1ccc(C(=O)Oc2ccc(CC(=O)O)n3ncnc23)cc1 [Compound 1] ?
yes

Field entry: N=C(N)Nc1ccc(C(=O)Oc2ccc(CC(=O)O)n3ccnc23)cc1 [Compound 9]
yes

----------
Biological target: Recombinant full-length human EP (Enteropeptidase) (Homo sapiens)
Construct: Recombinant full-length human EP (PeproTech, Cat #450-48C); purchased PeproTech 450-48C
Test: In vitro inhibition potencies against Enteropeptidase (EP), fluorescent peptide GDDDDK-naphthylamine substrate
Type: biochemical
Settings: compound 1 μM, 300 μM substrate, 1.25 nM EP
Description: In vitro inhibition potencies against Enteropeptidase (EP) Recombinant full-length human EP (PeproTech, Cat #450-48C) was used in this biochemical assay, with a quenched fluorescent labeled peptide GDDDDK-naphthylamine (NA) (Sigma, Cat #G5261) as the substrate in a buffer of 50 mM Tris-HCl pH 7.4, 200 mM NaCl and 0.01% Triton X-100. […]
# inhibition at 1 µM values compiled below
Kindly report the value followed by its unit.

Below, 8 compounds whose answers are already recorded.
| compound | measurement-target | inhibition at 1 µM |
| --- | --- | --- |
| N=C(N)Nc1ccc(C(=O)Oc2ccc(CC(=O)NC(CC(=O)O)C(=O)O)n3ncnc23)cc1 (stereo not drawn) | Recombinant full-length human EP (Enteropeptidase) (Homo sapiens) | 101% |
| COc1cc(C(=O)Oc2ccc(CC(=O)O)n3ncnc23)ccc1NC(=N)N | Recombinant full-length human EP (Enteropeptidase) (Homo sapiens) | 87.1% |
| N=C(N)Nc1ccc(C(=O)Oc2ccc(CC(=O)O)n3ccnc23)cc1 | Recombinant full-length human EP (Enteropeptidase) (Homo sapiens) | 100% |
| N=C(N)Nc1ccc(C(=O)Oc2ccc(Cc3nn[nH]n3)n3ncnc23)cc1 | Recombinant full-length human EP (Enteropeptidase) (Homo sapiens) | 101% |
| N=C(N)Nc1ccc(C(=O)Oc2ccc(CC(=O)O)n3ncnc23)cc1F | Recombinant full-length human EP (Enteropeptidase) (Homo sapiens) | 100% |
| CS(=O)(=O)NC(=O)Cc1ccc(OC(=O)c2cnc(NC(=N)N)nc2)c2ncnn12 | Recombinant full-length human EP (Enteropeptidase) (Homo sapiens) | 99.5% |
| N=C(N)Nc1ccc(C(=O)Oc2cc(CCC(=O)O)cn3ncnc23)cc1 | Recombinant full-length human EP (Enteropeptidase) (Homo sapiens) | 102% |
| CNC(=N)c1ccc(C(=O)Oc2ccc(CC(=O)O)n3ncnc23)cc1 | Recombinant full-length human EP (Enteropeptidase) (Homo sapiens) | 11.3% |

Next:
Param item = N=C(N)Nc1ccc(C(=O)Oc2ccc(CC(=O)O)n3ncnc23)c2ccoc12 ; retrieve measured inhibition at 1 µM.
98.8%

----------
molecular target: Bovine trypsin (Bos taurus); construct: purchased Sigma-Aldrich T1426; assay: Biochemical Assay of Trypsin (T), H-D-CHA-AR-AMC substrate; conditions: compound 0.1 μM, 15 μM substrate, 0.025 nM Trypsin
Sequence (P00760 24-246): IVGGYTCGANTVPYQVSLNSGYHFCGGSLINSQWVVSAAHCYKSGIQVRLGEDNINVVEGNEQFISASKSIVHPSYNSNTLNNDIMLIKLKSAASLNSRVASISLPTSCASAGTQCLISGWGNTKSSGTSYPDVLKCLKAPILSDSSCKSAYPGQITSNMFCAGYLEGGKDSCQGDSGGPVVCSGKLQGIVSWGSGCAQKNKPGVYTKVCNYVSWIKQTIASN
Give t when the value for inhibition at 0.1 µM is at least 90%. Give f when it is less.

Worked examples follow.
| structure-smiles | group-label |
| --- | --- |
| N#Cc1cc(C(=O)Oc2ccc(CC(=O)O)n3ncnc23)ccc1NC(=N)N | f |
| N=C(N)Nc1ccc(C(=O)Oc2ccc(Cc3nn[nH]n3)n3ncnc23)cc1 | t |
| N=C(N)Nc1ccc(C(=O)Oc2ccc(CC(=O)O)n3ncnc23)cc1I | f |
| C#CCOCC#Cc1cc(NC(=N)N)ccc1C(=O)Oc1ccc(CC(=O)O)n2ncnc12 | f |
| Cc1cc(C(=O)Oc2ccc(CC(=O)O)n3ncnc23)ccc1NC(=N)N | f |
| CS(=O)(=O)NC(=O)Cc1ccc(OC(=O)c2ccc(NC(=N)N)cc2)c2ncnn12 | t |

Entry N=C(N)Nc1ccc(C(=O)Oc2ccc(CC(=O)O)n3ccnc23)cc1 : is its inhibition at 0.1 µM no less than 90%?
t

Same thing, different molecule: N=C1NCCN1c1ccc(C(=O)Oc2ccc(CC(=O)O)n3ncnc23)cc1
f

----------
Entries and their inhibition at 10 µM values follow.
biological target: Bovine trypsin (Bos taurus); construct: purchased Sigma-Aldrich T1426; assay: Biochemical Assay of Trypsin (T), H-D-CHA-AR-AMC substrate; conditions: compound 10 μM, 15 μM substrate, 0.025 nM Trypsin
Record the value in %, omitting the unit from your answer.

A selection of reference data follows.
| compound | inhibition at 10 µM (%) |
| --- | --- |
| CS(=O)(=O)NC(=O)Cc1ccc(OC(=O)c2cnc(NC(=N)N)nc2)c2ncnn12 [Compound 30] | 100 |
| N=C(N)Nc1ccc(C(=O)Oc2ccc(CC(=O)NC(CC(=O)O)C(=O)O)n3ncnc23)cc1 (centres unmarked) [Compound 5] | 100 |
| CONC(=N)c1ccc(C(=O)Oc2ccc(CC(=O)O)n3ncnc23)cc1 [Compound 36] | 18.2 |
| N=C(N)Nc1ccc(C(=O)Oc2ccc(C3OC(=O)NC3=O)n3ncnc23)cc1 (centres unmarked) [Compound 17] | 100 |
| N=C(N)Nc1ccc(C(=O)Oc2cc(CCC(=O)O)cn3ncnc23)cc1 [Compound 25] | 100 |
| N=C(N)Nc1ncc(C(=O)Oc2ccc(CC(=O)NC(CC(=O)O)C(=O)O)n3ncnc23)cn1 (centres unmarked) [Compound 28] | 100 |

Record N=C(N)Nc1ccc(C(=O)Oc2ccc(CCC(=O)O)n3ncnc23)cc1 [Compound 3] : what is its inhibition at 10 µM with Bovine trypsin (Bos taurus)?
100

Moving on to C/C(=N\O)Nc1ccc(C(=O)Oc2ccc(CC(=O)O)n3ncnc23)cc1 [Compound 40]
10.1

----------
target: Recombinant full-length human EP (Enteropeptidase) (Homo sapiens); construct: Recombinant full-length human EP (PeproTech, Cat #450-48C); purchased PeproTech 450-48C; test: In vitro inhibition potencies against Enteropeptidase (EP), fluorescent peptide GDDDDK-naphthylamine substrate; type: biochemical; settings: compound 10 μM, 300 μM substrate, 1.25 nM EP
value-type: inhibition at 10 µM (%)
Just the number in %, nothing appended.

# annotated cases, reported inhibition at 10 µM shown
| molecule | unit-symbol | inhibition at 10 µM |
| --- | --- | --- |
| N=C(N)Nc1ccc(C(=O)Oc2ccc(CC(=O)NC(CCC(=O)O)(CCC(=O)O)CCC(=O)O)n3ncnc23)cc1 [Compound 7] | % | 100 |
| N=C(N)Nc1ccc(C(=O)Oc2ccc(CC(=O)O)n3ncnc23)cc1O [Compound 23] | % | 101 |
| N=C(N)Nc1ccc(C(=O)Oc2ccc(C3OC(=O)NC3=O)n3ncnc23)cc1 (stereo not shown) [Compound 17] | % | 100 |
| N=C(N)Nc1ccc(C(=O)Oc2ccc(CC(=O)N(CC(=O)O)CC(=O)O)n3ncnc23)cc1 [Compound 6] | % | 101 |
| N#CNC(=N)c1ccc(C(=O)Oc2ccc(CC(=O)O)n3ncnc23)cc1 [Compound 38] | % | 13.6 |
| N=C1NCCN1c1ccc(C(=O)Oc2ccc(CC(=O)O)n3ncnc23)cc1 [Compound 32] | % | 93.2 |
| N=C(N)Nc1ccc(C(=O)Oc2ccc(CC(=O)NC(CC(=O)O)C(=O)O)n3ccnc23)cc1 (stereo not shown) [Compound 27] | % | 100 |
| CS(=O)(=O)NC(=O)Cc1ccc(OC(=O)c2ccc(NC(=N)N)cc2)c2ncnn12 [Compound 8] | % | 100 |
| N=C(N)Nc1ccc(C(=O)Oc2ccc(CCC(=O)O)n3ncnc23)cc1 [Compound 3] | % | 100 |
| N=C(N)Nc1ccc(C(=O)Oc2ccc(CC(=O)O)n3ncnc23)cc1F [Compound 14] | % | 100 |

Quick check: inhibition at 10 µM on Recombinant full-length human EP (Enteropeptidase) (Homo sapiens), item N=C(N)Nc1ccc(C(=O)Oc2ccc(CC(=O)O)n3ncnc23)cc1I [Compound 13] ?
65

Please answer likewise for CNC(=N)c1ccc(C(=O)Oc2ccc(CC(=O)O)n3ncnc23)cc1 [Compound 33]
52.3

For N=C(N)Nc1ccc(C(=O)Oc2ccc(CC(=O)NC(CC(=O)O)C(=O)O)n3ncnc23)cc1 (stereo not shown) [Compound 5] then?
100

Cool, now CS(=O)(=O)NC(=O)Cc1ccc(OC(=O)c2cnc(NC(=N)N)nc2)c2ncnn12 [Compound 30]
100

Lookup N=C(N)Nc1ccc(C(=O)Oc2ccc(CC(=O)O)n3ncnc23)c(C(F)(F)F)c1 [Compound 20]
98.9

Would you mind doing N=C(N)Nc1ncc(C(=O)Oc2ccc(CC(=O)O)n3ccnc23)cn1 [Compound 29] as well?
100
